Data provenance: the PolyMetriX glass transition set

test readout: glass transition temperature (°C)

*C(=O)c1ccc2c(c1)C(=O)N(c1cccc(Nc3ncnc(Nc4cccc(N5C(=O)c6ccc(*)cc6C5=O)c4)n3)c1)C2=O (repeat unit) : 290.00
*CCN(*)C(=O)c1ccc(SC(F)(F)F)cc1 (repeat unit) : 100.00
*c1ccc2c(c1)C(=O)N(c1ccc(C(c3ccccc3)(c3ccc(N4C(=O)c5ccc(C(*)(C(F)(F)F)C(F)(F)F)cc5C4=O)cc3)C(F)(F)F)cc1)C2=O (repeat unit) : 305.00
*CCCCCCCCOC(=O)c1cccc(C(=O)O*)c1 (repeat unit) : -9.00
*C1OCCCC1C1C(=O)OC(=O)C1* (repeat unit) : 210.00

[a] *CCN(CCOC(=O)Nc1ccc(C)c(NC(=O)O*)c1)c1ccc([N+](=O)[O-])cc1C (repeat unit)
[b] *CC(*)(C)C(=O)OCCCCCCCCCCOc1ccc(/N=N/c2ccc(F)cc2)cc1 (repeat unit)
[c] *C(=O)c1ccc2c(c1)C(=O)N(c1ccccc1Cc1ccccc1N1C(=O)c3ccc(*)cc3C1=O)C2=O (repeat unit)
Parameters: sort_field (glass transition temperature), sort_dir (desc). To answer, write out the labels according to the requested order.
c, a, b

[P] *C(=O)Nc1ccc(-c2ccc(NC(=O)c3ccc4c(c3)C(=O)N(c3ccc(Oc5ccc(N6C(=O)c7ccc(*)cc7C6=O)cc5)cc3)C4=O)cc2)cc1 (repeat unit)
[Q] *Oc1ccc(CC(NC(=O)CCc2ccc(OC(=O)CCCCCCCCC(*)=O)cc2)C(=O)OCCOCCOCC)cc1 (repeat unit)
Of P versus Q , which is the one with smaller reported glass transition temperature? Record your answer as the label of the chosen record.
Q
